system: KURAMOCHI; experiment: drug sensitivity score (DSS2) on cancer cell count; higher = more sensitive; extreme values may be limits of the assay; details: co-cultured fibroblast: WI38; 72 h
Exercise: for every item that follows, state its recorded drug sensitivity score.
Just the number plus its unit, please.

Exam item: For the record Cc1c2oc3c(C)ccc(C(=O)N[C@@H]4C(=O)N[C@H](C(C)C)C(=O)N5CCC[C@H]5C(=O)N(C)CC(=O)N(C)[C@@H](C(C)C)C(=O)O[C@@H]4C)c3nc-2c(C(=O)N[C@@H]2C(=O)N[C@H](C(C)C)C(=O)N3CCC[C@H]3C(=O)N(C)CC(=O)N(C)[C@@H](C(C)C)C(=O)O[C@@H]2C)c(N)c1=O , what value of drug sensitivity score is listed for KURAMOCHI?
Marked response: 25.9 DSS

Exam item: For the record CCC1(c2ccc(N)cc2)CCC(=O)NC1=O (stereo unspecified) [Aminoglutethimide] , what value of drug sensitivity score is listed for KURAMOCHI?
Marked response: 0 DSS

Exam item: For the record CN(C)C1CCN(C(=O)c2ccc(NC(=O)Nc3ccc(-c4nc(N5CCOCC5)nc(N5CCOCC5)n4)cc3)cc2)CC1 , what value of drug sensitivity score is listed for KURAMOCHI?
Marked response: 16 DSS

Exam item: For the record O=C(O)CCCCC(CCSCc1ccccc1)SCc1ccccc1 (stereo unspecified) , what value of drug sensitivity score is listed for KURAMOCHI?
Marked response: 0 DSS

Exam item: For the record CNC(=O)c1ccccc1Nc1cc(Nc2ccc(N3CCOCC3)cc2OC)ncc1C(F)(F)F , what value of drug sensitivity score is listed for KURAMOCHI?
Marked response: 7.9 DSS

Exam item: For the record CN1CCN(c2ccc(C(=O)Nc3n[nH]c4ccc(Cc5cc(F)cc(F)c5)cc34)c(NC3CCOCC3)c2)CC1 , what value of drug sensitivity score is listed for KURAMOCHI?
Marked response: 0.3 DSS
